biological target: T1, Human LILRB4 on transiently transfected HEK293-6E cells (human, UniProt Q8NHJ6 22-448); experiment: flow cytometry, transiently transfected HEK293-6E cells
T1 construct: whole, on cells; also called hLILRB4
endpoint-name: Bmax (MFI)
Express the result in MFI but write the number alone.

Recorded Bmax (MFI), per entry:
B2H1-55 (antibody, V domains shown, Humanized variant, human IgG1 / kappa; also called humanized variant B2H1-55; humanized LILRB2 antibody B2H1-55) VH: EVQLLESGGGLVQPGTSLTLSCAASGFSLSTYAMSWVRQAPGKGLEWIGWIYNDGSTYYAAWAKGRFTISKDTSKTTLYLQITSLRAEDTATYFCAREGDYIGYFNIWGQGTLVTVSS VL: DVVMTQTPSSVSAALGGTVTIKCQASQSIGSNLAWYQLKPGQRPKLLIYAAATLASGGSSRFKGSGSGTDFTLTISSLEPADAATYYCQSYVSGSSDVAFGGGTEVVVK	40.3
B2H1-52 (antibody, V domains shown, Humanized variant, human IgG1 / kappa) VH: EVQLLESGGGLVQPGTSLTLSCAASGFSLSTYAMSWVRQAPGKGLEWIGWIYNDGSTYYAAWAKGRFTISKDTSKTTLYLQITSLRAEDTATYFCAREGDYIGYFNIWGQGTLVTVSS VL: DVVMTQSPSSVSASLGDRVTITCQASQSIGSNLAWYQQKPGQAPKLLIYAAATLASGVPSRFKGSGSGTDFTLTITSLQPADFATYYCQSYVSGSSDVAFGGGTKVEIK	40.5

Shifting focus to the binder that follows.
*Q* Given B2H1-35 (antibody, V domains shown, Humanized variant, human IgG1 / kappa) VH: QVQLVESGGRVVQPGTPLRLSCAASGFSLSTYAMSWVRQAPGKGLEWVAWIYNDGSTYYAAWAKGRFTISRDTSKNTLYLQTNSLKPDDTAVYYCAREGDYIGYFNIWGQGTLVTVSS VL: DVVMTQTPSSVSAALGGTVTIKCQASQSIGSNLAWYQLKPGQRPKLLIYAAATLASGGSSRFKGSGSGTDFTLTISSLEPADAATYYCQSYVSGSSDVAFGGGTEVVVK , state its recorded Bmax (MFI).
*A* 38.5
